system: human APOE RNA; test: Potency (dose response, ED50) in APOE C57BL/6NTac-Apoeem7250 knock-in mice, 4 weeks (Example 14); type: in vivo; conditions: spinal cord, ICV dose 100 μg
Strand notation (5' to 3'): a small letter for the sugar, then the base; units joined by * are phosphorothioate-linked, units joined directly phosphodiester-linked; [ ] holds rarer units or linkages, { } end groups; capitals alone tell only the bases. [ms] = mesyl phosphoramidate linkage; e = 2'-O-(2-methoxyethyl) (MOE); k = constrained ethyl (cEt); [5mC] = 5-methylcytosine; d = 2'-deoxy (DNA)
PROPERTY_LABEL: APOE RNA (% control) Spinal Cord
Field: numeric (% control). Do not append units.

Quick one: APOE RNA (% control) Spinal Cord for 1693105: 6-10-4 MOE gapmer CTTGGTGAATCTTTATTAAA, linkages sosssszzzssssszssss (e[5mC]*eTeT*eG*eG*eT*dG[ms]dA[ms]dA[ms]dT*d[5mC]*dT*dT*dT*dA[ms]dT*eT*eA*eA*eA) [compound 1693105] ?
47

Dear colleague, I am looking for the recorded APOE RNA (% control) Spinal Cord of the following substance: 1778154: modified oligonucleotide complementary to human APOE RNA (e[5mC]*eT*eTeGeGeT*dG[ms]dA[ms]dA*dT*d[5mC]*dT*dT*dT*dA*dT*kTkAeA*eA; antisense) [compound 1778154]
38

Dear colleague, I am looking for the recorded APOE RNA (% control) Spinal Cord of the following substance: 1746809 (k[5mC]*dT[ms]kT*dG[ms]kG*dT[ms]dG[ms]dA[ms]dA[ms]dT*d[5mC]*dT*dT*dT*dA[ms]dT*dT[ms]kA*kA*kA; antisense) [Compound 1746809]
59

Please report the recorded APOE RNA (% control) Spinal Cord for 1778131: modified oligonucleotide complementary to human APOE RNA (eA*e[5mC]eTeTeGkG*dT*dG[ms]dA[ms]dA*dT*d[5mC]*dT*dT*dT*dA[ms]kTkT*eA*eA; antisense) [compound 1778131] .
36

====

Test system: human APOE RNA
Assay: Dose-dependent inhibition of human APOE RNA in HepG2 cells, electroporation, 24 hours (Example 6)
Assay type: cell-based
Details: 512 nM
Method: Modified oligonucleotides selected from the examples above were tested at various doses in HepG2. HepG2 cells plated at a density of 50,000 cells per well were treated by electroporation with various concentrations of modified oligonucleotide as specified in the tables below. […] APOE RNA levels were measured using the human primer probe set RTS3073 (described herein above). APOE RNA levels were normalized to human GAPDH. […]
Strand notation (5' to 3'): a small letter for the sugar, then the base; units joined by * are phosphorothioate-linked, units joined directly phosphodiester-linked; [ ] holds rarer units or linkages, { } end groups; capitals alone tell only the bases. [ms] = mesyl phosphoramidate linkage; e = 2'-O-(2-methoxyethyl) (MOE); k = constrained ethyl (cEt); [5mC] = 5-methylcytosine; d = 2'-deoxy (DNA)
Please respond with reported APOE RNA (% UTC) for every item in the list.
Report as a plain number; the unit % UTC is understood.

Param readout= APOE RNA (% UTC); system= human APOE RNA; entry= 1693102: 6-10-4 MOE gapmer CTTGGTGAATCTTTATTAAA, linkages ssssoszzzssssszssss (e[5mC]*eT*eT*eG*eGeT*dG[ms]dA[ms]dA[ms]dT*d[5mC]*dT*dT*dT*dA[ms]dT*eT*eA*eA*eA) [compound 1693102] ; returns value.
64

Please state recorded APOE RNA (% UTC) (tested on human APOE RNA) of 1736525: 6-10-4 MOE gapmer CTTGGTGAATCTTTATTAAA, linkages sooosszzsssssssssss (e[5mC]*eTeTeGeG*eT*dG[ms]dA[ms]dA*dT*d[5mC]*dT*dT*dT*dA*dT*eT*eA*eA*eA) [compound 1736525]
69

Can you look up APOE RNA (% UTC) on human APOE RNA for 1736523: 6-10-4 MOE gapmer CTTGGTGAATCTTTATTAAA, linkages ssoooszzssssssssoss (e[5mC]*eT*eTeGeGeT*dG[ms]dA[ms]dA*dT*d[5mC]*dT*dT*dT*dA*dT*eTeA*eA*eA) [compound 1736523] ?
47

For the record 1736535 (e[5mC]*eT*eT*eG*eGkT*dG[ms]dA[ms]dA[ms]dT*d[5mC]*dT*dT*dT*dA[ms]dT*eT*eA*eA*eA; antisense) [Compound 1736535] , what value of APOE RNA (% UTC) is listed for human APOE RNA?
69

====

system: human APOE RNA; experiment: Dose-dependent inhibition of human APOE RNA in HepG2 cells, electroporation, 50,000 cells per well, RT-PCR normalized to GAPDH (Example 4, Tables 8-10); format: cell-based; conditions: HepG2 cells, electroporation, 24-hour treatment, 82 nM, Table 8
Strand notation (5' to 3'): a small letter for the sugar, then the base; units joined by * are phosphorothioate-linked, units joined directly phosphodiester-linked; [ ] holds rarer units or linkages, { } end groups; capitals alone tell only the bases. [ms] = mesyl phosphoramidate linkage; e = 2'-O-(2-methoxyethyl) (MOE); k = constrained ethyl (cEt); [5mC] = 5-methylcytosine; d = 2'-deoxy (DNA)
Answer each item with its documented APOE RNA (% UTC) 82 nM.

// query APOE RNA (% UTC) 82 nM value for entry 1785599: modified oligonucleotide complementary to human APOE RNA (k[5mC]*kT*kT*dG[ms]dG[ms]dT[ms]dG[ms]dA[ms]dA[ms]dT[ms]d[5mC]*dT*dT*dT*dA*dT*kT*kA*dA[ms]kA; antisense) [compound 1785599]
87 % UTC

Bench note: what APOE RNA (% UTC) 82 nM did 1778130: modified oligonucleotide complementary to human APOE RNA (eA*e[5mC]eTeTeG*kG*dT*dG[ms]dA[ms]dA*dT*d[5mC]*dT*dT*dT*dA[ms]kTkT*eA*eA; antisense) [compound 1778130] show?
75 % UTC

# lookup: APOE RNA (% UTC) 82 nM of 1778129: modified oligonucleotide complementary to human APOE RNA (eA*e[5mC]eTeTeG*kG*dT*dG[ms]dA[ms]dA*dT*d[5mC]*dT*dT*dT*dA[ms]kT*kT*eA*eA; antisense) [compound 1778129]
77 % UTC

Given the entry 1778115: modified oligonucleotide complementary to human APOE RNA (eA*e[5mC]eTeTkGkG*dT*dG[ms]dA[ms]dA*dT*d[5mC]*dT*dT*dT*dA[ms]eTeT*eA*eA; antisense) [compound 1778115] , report its measured APOE RNA (% UTC) 82 nM.
85 % UTC

====

tested on: human APOE RNA; assay: Dose-dependent inhibition of human APOE RNA in HepG2 cells, electroporation, 24 hours (Example 6); type: cell-based; settings: 5 nM
Strand notation (5' to 3'): a small letter for the sugar, then the base; units joined by * are phosphorothioate-linked, units joined directly phosphodiester-linked; [ ] holds rarer units or linkages, { } end groups; capitals alone tell only the bases. [ms] = mesyl phosphoramidate linkage; e = 2'-O-(2-methoxyethyl) (MOE); k = constrained ethyl (cEt); [5mC] = 5-methylcytosine; d = 2'-deoxy (DNA)
Answer each item with its documented APOE RNA (% UTC).
Note: unit % UTC is implicit; provide only the numeric part.

Query: APOE RNA (% UTC); subject: 1736533 (e[5mC]*eT*eT*eG*eGeT*dG[ms]dA[ms]dA[ms]dT*d[5mC]*dT*dT*dT*dA[ms]dT*kT*eA*eA*eA; antisense) [Compound 1736533]
83

Item 1736523: 6-10-4 MOE gapmer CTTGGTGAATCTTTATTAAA, linkages ssoooszzssssssssoss (e[5mC]*eT*eTeGeGeT*dG[ms]dA[ms]dA*dT*d[5mC]*dT*dT*dT*dA*dT*eTeA*eA*eA) [compound 1736523] has what recorded APOE RNA (% UTC)?
97

Which measured APOE RNA (% UTC) value corresponds to 1693101: 6-10-4 MOE gapmer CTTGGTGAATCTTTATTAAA, linkages sssssozzzssssszssss (e[5mC]*eT*eT*eG*eG*eTdG[ms]dA[ms]dA[ms]dT*d[5mC]*dT*dT*dT*dA[ms]dT*eT*eA*eA*eA) [compound 1693101] ?
70

Report APOE RNA (% UTC) for 1736531 (e[5mC]*eT*eT*eG*eG*kTdG[ms]dA[ms]dA[ms]dT*d[5mC]*dT*dT*dT*dA[ms]dT*eT*eA*eA*eA; antisense) [Compound 1736531] please.
97

So what's the measured APOE RNA (% UTC) for this one? 1736529 (e[5mC]*eT*eT*eG*eG*eTdG[ms]dA[ms]dA[ms]dT*d[5mC]*dT*dT*dT*dA[ms]dT*kT*kA*eA*eA; antisense) [Compound 1736529]
92

What does the data say about its APOE RNA (% UTC)? Entry: 1736516 (e[5mC]*eTeTeG*eG*kT*dG[ms]dA[ms]dA[ms]dT*d[5mC]*dT*dT*dT*dA[ms]dT*eT*eA*eA*eA; antisense) [Compound 1736516]
106

For 1736518: 6-10-4 MOE gapmer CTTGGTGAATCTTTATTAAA, linkages soossszzzssssssssss (e[5mC]*eTeTeG*eG*eT*dG[ms]dA[ms]dA[ms]dT*d[5mC]*dT*dT*dT*dA*dT*eT*eA*eA*eA) [compound 1736518] , what is its reported APOE RNA (% UTC)?
93

# APOE RNA (% UTC) lookup, item 1736526: 6-10-4 MOE gapmer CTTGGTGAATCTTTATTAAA, linkages ssoooszzsssssssssss (e[5mC]*eT*eTeGeGeT*dG[ms]dA[ms]dA*dT*d[5mC]*dT*dT*dT*dA*dT*eT*eA*eA*eA) [compound 1736526]
89

Would you mind telling me what APOE RNA (% UTC) value was observed for 1693105: 6-10-4 MOE gapmer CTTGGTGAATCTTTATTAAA, linkages sosssszzzssssszssss (e[5mC]*eTeT*eG*eG*eT*dG[ms]dA[ms]dA[ms]dT*d[5mC]*dT*dT*dT*dA[ms]dT*eT*eA*eA*eA) [compound 1693105] ?
117

For 1652902: 6-10-4 MOE gapmer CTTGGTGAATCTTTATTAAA, linkages sooooossssssssssoss (antisense e[5mC]*eTeTeGeGeTdG*dA*dA*dT*d[5mC]*dT*dT*dT*dA*dT*eTeA*eA*eA) [compound 1652902] , what is its reported APOE RNA (% UTC)?
88

Can you look up the measured APOE RNA (% UTC) of 1736519: 6-10-4 MOE gapmer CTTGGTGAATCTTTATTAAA, linkages sososszzzssssssssss (e[5mC]*eTeT*eGeG*eT*dG[ms]dA[ms]dA[ms]dT*d[5mC]*dT*dT*dT*dA*dT*eT*eA*eA*eA) [compound 1736519] for me?
107

I'd like to know its APOE RNA (% UTC). The substance in question is 1736493 (e[5mC]*eTeT*eG*eG*eT*dG[ms]dA[ms]dA[ms]dT*d[5mC]*dT*dT*dT*dA[ms]dT*kT*kA*eA*eA; antisense) [Compound 1736493]
73

Can you share its APOE RNA (% UTC)? I mean this substance: 1736492 (e[5mC]*eTeT*eG*eG*eT*dG[ms]dA[ms]dA[ms]dT*d[5mC]*dT*dT*dT*dA[ms]dT*kT*eA*eA*eA; antisense) [Compound 1736492]
95

Which APOE RNA (% UTC) reading was recorded for the substance 1736535 (e[5mC]*eT*eT*eG*eGkT*dG[ms]dA[ms]dA[ms]dT*d[5mC]*dT*dT*dT*dA[ms]dT*eT*eA*eA*eA; antisense) [Compound 1736535] ?
90

For the substance shown here, 1736513 (e[5mC]*eTeT*eG*eG*kT*dG[ms]dA[ms]dA[ms]dT*d[5mC]*dT*dT*dT*dA[ms]dT*eT*eA*eA*eA; antisense) [Compound 1736513] , give the reported APOE RNA (% UTC).
106

Which value of APOE RNA (% UTC) has been reported for 1736528 (e[5mC]*eT*eT*eG*eG*eTdG[ms]dA[ms]dA[ms]dT*d[5mC]*dT*dT*dT*dA[ms]dT*kT*eA*eA*eA; antisense) [Compound 1736528] in the records?
100

# input substance: 1736536 (e[5mC]*eT*eT*eG*kGkT*dG[ms]dA[ms]dA[ms]dT*d[5mC]*dT*dT*dT*dA[ms]dT*eT*eA*eA*eA; antisense) [Compound 1736536] ; wanted: its APOE RNA (% UTC)
97

// lookup APOE RNA (% UTC) for 1736522: 6-10-4 MOE gapmer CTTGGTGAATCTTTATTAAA, linkages sooosszzssssssssoss (e[5mC]*eTeTeGeG*eT*dG[ms]dA[ms]dA*dT*d[5mC]*dT*dT*dT*dA*dT*eTeA*eA*eA) [compound 1736522]
110

Dear colleague, I am looking for the recorded APOE RNA (% UTC) of the following substance: 1736521: 6-10-4 MOE gapmer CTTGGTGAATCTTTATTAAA, linkages sosssszzzsssssssoss (e[5mC]*eTeT*eG*eG*eT*dG[ms]dA[ms]dA[ms]dT*d[5mC]*dT*dT*dT*dA*dT*eTeA*eA*eA) [compound 1736521]
99
